This collection of values is drawn from ChEMBL document CHEMBL5338820.

- system tested: CCN2-EGFR (Homo sapiens) (UniProt P00533+P29279)
- Sequence (P00533 whole entry, looked up, the tested form may be a part): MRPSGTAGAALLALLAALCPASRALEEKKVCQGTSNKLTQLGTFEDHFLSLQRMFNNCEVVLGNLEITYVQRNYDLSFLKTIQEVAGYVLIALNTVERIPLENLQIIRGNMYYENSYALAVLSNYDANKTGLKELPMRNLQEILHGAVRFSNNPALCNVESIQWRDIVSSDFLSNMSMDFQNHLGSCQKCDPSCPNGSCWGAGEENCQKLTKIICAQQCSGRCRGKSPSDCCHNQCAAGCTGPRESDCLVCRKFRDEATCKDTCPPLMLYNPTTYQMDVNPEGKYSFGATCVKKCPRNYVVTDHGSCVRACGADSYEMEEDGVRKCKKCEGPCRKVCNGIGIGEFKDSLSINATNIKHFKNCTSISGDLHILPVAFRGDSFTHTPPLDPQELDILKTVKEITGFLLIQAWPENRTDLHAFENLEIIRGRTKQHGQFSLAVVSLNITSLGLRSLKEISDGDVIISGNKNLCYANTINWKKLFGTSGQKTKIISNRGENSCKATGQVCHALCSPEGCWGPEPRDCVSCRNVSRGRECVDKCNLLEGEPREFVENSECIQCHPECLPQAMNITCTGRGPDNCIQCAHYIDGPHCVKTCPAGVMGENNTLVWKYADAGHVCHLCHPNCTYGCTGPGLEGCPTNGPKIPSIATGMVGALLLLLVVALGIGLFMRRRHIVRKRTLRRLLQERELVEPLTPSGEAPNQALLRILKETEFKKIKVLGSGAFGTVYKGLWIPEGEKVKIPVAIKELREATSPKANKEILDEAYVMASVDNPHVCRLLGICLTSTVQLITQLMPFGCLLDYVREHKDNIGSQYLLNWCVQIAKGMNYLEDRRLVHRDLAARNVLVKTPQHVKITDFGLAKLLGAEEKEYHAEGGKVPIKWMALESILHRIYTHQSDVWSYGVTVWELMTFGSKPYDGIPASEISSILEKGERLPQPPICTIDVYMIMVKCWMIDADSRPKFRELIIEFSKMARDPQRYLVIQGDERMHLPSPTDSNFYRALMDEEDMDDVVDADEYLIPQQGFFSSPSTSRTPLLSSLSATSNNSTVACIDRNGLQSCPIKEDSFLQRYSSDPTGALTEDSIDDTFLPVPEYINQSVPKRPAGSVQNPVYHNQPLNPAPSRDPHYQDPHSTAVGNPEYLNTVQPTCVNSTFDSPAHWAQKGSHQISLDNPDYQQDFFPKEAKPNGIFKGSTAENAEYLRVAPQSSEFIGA
- Sequence (P29279 whole entry, looked up, the tested form may be a part): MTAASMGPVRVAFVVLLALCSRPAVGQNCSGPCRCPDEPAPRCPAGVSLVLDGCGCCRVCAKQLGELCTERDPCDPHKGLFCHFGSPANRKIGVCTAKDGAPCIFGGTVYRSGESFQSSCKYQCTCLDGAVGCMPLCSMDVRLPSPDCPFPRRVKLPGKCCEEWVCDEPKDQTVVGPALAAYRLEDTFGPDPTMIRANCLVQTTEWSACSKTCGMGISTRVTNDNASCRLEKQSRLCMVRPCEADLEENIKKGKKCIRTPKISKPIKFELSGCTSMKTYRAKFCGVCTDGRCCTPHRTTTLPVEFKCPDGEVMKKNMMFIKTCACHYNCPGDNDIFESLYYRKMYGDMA
- test description: Inhibition of His-tagged full length human CCN2 FL domain/human Fc-tagged EGFR protein-protein interaction using TMB as chromogenic substrate at 100 uM incubated for 140 mins by microplate reader assay relative to control
Peptide text beside a SMILES is read from it.
reported endpoint: inhibition (%)

molecule	reported endpoint	value observed
C[C@@H](O)[C@H](N)C(=O)N[C@@H](Cc1c[nH]cn1)C(=O)N[C@@H](Cc1c[nH]cn1)C(=O)N[C@@H](CCCNC(=N)N)C(=O)N[C@@H](CCCCN)C(=O)N[C@@H](Cc1c[nH]c2ccccc12)C(=O)N[C@H](C(N)=O)[C@@H](C)O (H-THHRKWT-NH2)	inhibition	15
CC(C)C[C@H](NC(=O)[C@H](CCCNC(=N)N)NC(=O)[C@H](Cc1c[nH]cn1)NC(=O)[C@H](Cc1c[nH]cn1)NC(=O)[C@@H](N)[C@@H](C)O)C(=O)N[C@@H](Cc1c[nH]c2ccccc12)C(=O)N[C@H](C(N)=O)[C@@H](C)O (H-THHRLWT-NH2)	inhibition	37.1
C[C@@H](O)[C@H](N)C(=O)N[C@@H](Cc1c[nH]cn1)C(=O)N[C@@H](Cc1c[nH]cn1)C(=O)N[C@@H](CCCCN)C(=O)N1CCC[C@H]1C(=O)N[C@@H](Cc1c[nH]c2ccccc12)C(=O)N[C@H](C(N)=O)[C@@H](C)O (H-THHKPWT-NH2)	inhibition	14.4
C[C@@H](O)[C@H](N)C(=O)N[C@@H](Cc1c[nH]cn1)C(=O)N[C@@H](Cc1c[nH]cn1)C(=O)N[C@@H](CCCNC(=N)N)C(=O)N[C@@H](CCC(=O)O)C(=O)N[C@@H](Cc1c[nH]c2ccccc12)C(=O)N[C@H](C(N)=O)[C@@H](C)O (H-THHREWT-NH2)	inhibition	19.6

----------
- system tested: CCN2-EGFR (Homo sapiens) (UniProt P00533+P29279)
- test description: Inhibition of His-tagged full length human CCN2 FL domain/human Fc-tagged EGFR protein-protein interaction using TMB as chromogenic substrate at 100 uM incubated for 140 mins by microplate reader assay relative to control
Peptide text beside a SMILES is read from it.

compound	inhibition
CC(C)C[C@H](NC(=O)[C@@H](N)CC(C)C)C(=O)N[C@@H](C)C(=O)N[C@@H](CC(=O)O)C(=O)N[C@H](C(=O)N[C@H](C(=O)N[C@@H](Cc1c[nH]cn1)C(=O)N[C@@H](Cc1c[nH]cn1)C(=O)N[C@@H](C)C(=O)N1CCC[C@H]1C(=O)N[C@@H](Cc1c[nH]c2ccccc12)C(=O)N[C@H](C(N)=O)[C@@H](C)O)[C@@H](C)O)[C@@H](C)O (H-LLADTTHHAPWT-NH2)	57.8%
C[C@@H](O)[C@H](N)C(=O)N[C@@H](Cc1c[nH]cn1)C(=O)N[C@@H](Cc1c[nH]cn1)C(=O)N[C@@H](CCC(=O)O)C(=O)N1CCC[C@H]1C(=O)N[C@@H](Cc1c[nH]c2ccccc12)C(=O)N[C@H](C(N)=O)[C@@H](C)O (H-THHEPWT-NH2)	12.4%
CC(C)C[C@H](NC(=O)[C@H](C)N)C(=O)N[C@@H](C)C(=O)N[C@@H](CC(=O)O)C(=O)N[C@H](C(=O)N[C@H](C(=O)N[C@@H](Cc1c[nH]cn1)C(=O)N[C@@H](Cc1c[nH]cn1)C(=O)N[C@@H](CCCNC(=N)N)C(=O)N1CCC[C@H]1C(=O)N[C@@H](Cc1c[nH]c2ccccc12)C(=O)N[C@H](C(N)=O)[C@@H](C)O)[C@@H](C)O)[C@@H](C)O (H-ALADTTHHRPWT-NH2)	58.7%
C[C@@H](O)[C@H](NC(=O)[C@H](Cc1c[nH]c2ccccc12)NC(=O)[C@@H]1CCCN1C(=O)[C@H](CCCNC(=N)N)NC(=O)[C@H](Cc1c[nH]cn1)NC(=O)[C@@H](N)Cc1c[nH]cn1)C(N)=O (H-HHRPWT-NH2)	16%
